IC50 values for Receptor tyrosine-protein kinase erbB-2 (Homo sapiens), compiled from several publications.

Test smiles | Endpoint value
CN(C)C/C=C/C(=O)Nc1cc2c(Nc3ccc(F)c(Cl)c3)ncnc2cc1OC[C@@]12COC[C@@H]1C2 | 22 nM
COc1cc(Nc2ncnc(Nc3cc(-c4ccc(C(=O)N(C)C)cc4)n[nH]3)n2)cc(OC)c1OC | 815 to 4890 nM
CCN(CC)C/C=C/C(=O)N1CCOc2c1ccc1ncnc(Nc3ccc(OCc4ccccn4)c(Cl)c3)c21 | ≤ 50 nM
COc1cc(Nc2ncnc(NC(=O)NCCc3ccccc3)n2)cc(OC)c1OC | > 10600 nM
COC[C@@H](C)Oc1cc2ncnc(Nc3ccc(F)c(Cl)c3)c2cc1NC(=O)/C=C/CN(C)C | 148 nM
O=S(=O)(Nc1cccc(-c2nc(N3CCCC3)sc2-c2ccnc(Nc3ccc(N4CCN(CCF)CC4)c(F)c3)n2)c1)c1c(F)cccc1F | < 100 nM

For the next question, use this compound.
Quick one: IC50 of "COc1cc(Nc2ncnc(-n3c(N)nc4ccccc43)n2)cc(OC)c1OC" ?
> 11400 nM
